- METHOD: qHTS Assay for Modulators of miRNAs and/or Inhibitors of miR-21; further: potency means the concentration at half of the fitted maximal effect; nearly all actives have a fitted effect of over 55% in size
- RUN CONDITIONS: HeLa miR-21-FLuc reporter, luciferase luminescence, 48 h; actives lower the signal
The campaign covered roughly 340,000 compounds. About 3,300 (0.97%) were called active. Not shown: some 9% with an inconclusive outcome. This is one part of the list.
EXPERIMENTAL ENDPOINT: Potency

Sample records with Potency:
>>> experimental_value("Cc1ccc(N/C=C2/Sc3ccccc3NC2=O)cc1")
"4.14 µM (active)"
>>> experimental_value("COc1ccc(NC(=O)CCSc2ccc(F)cc2)cc1")
"7.36 µM (active)"
>>> experimental_value("O=[N+]([O-])c1ccccc1-c1cc(-c2ccccc2O)n[nH]1")
"2.07 µM (active)"
>>> experimental_value("CCN(CC)c1ccc(/C=C(/C#N)C(=O)NCc2ccccc2)o1")
"10.4 µM (active)"
>>> experimental_value("O=C(N/N=C\\C=C\\c1ccco1)c1cc(-c2ccc3ccccc3c2)n[nH]1")
"4.14 µM (active)"
>>> experimental_value("CCc1ccc(OCc2ccc(C(=O)OC)o2)cc1")
"5.21 µM (active)"
>>> experimental_value("O=C(CSc1ccc(F)cc1)Nc1ccc(C2SCCS2)cc1")
"11.7 µM (active)"
>>> experimental_value("N/C(=N\\OC(=O)C12CC3CC(CC(C3)C1)C2)c1ccccn1")
"5.21 µM (active)"
>>> experimental_value("Cc1nn(-c2ccc(Br)cc2)c(=O)c2ccccc12")
"2.93 µM (active)"
>>> experimental_value("Cc1ccc(-c2nc3cnccn3c2Nc2ccccc2)o1")
"16.5 µM (active)"

Query: Potency; subject: O=C(COc1ccccc1Cl)Nc1cccnc1
6.56 µM (active)

Another: COc1ccccc1-c1cc(C(=O)N2CCOCC2)no1
2.93 µM (active)
